Each entry below lists one item and its recorded pIC50 value.
- Target Entity: HCV NS5B (Hepatitis C virus genotype 1b, UniProt Q9WMX2)
- Construct: The protein was expressed with an 18 amino acid C-terminal truncation to enhance the solubility; made in house; host or cells: E. coli BL21(DE3)
- Sequence (Q9WMX2 2420-2992): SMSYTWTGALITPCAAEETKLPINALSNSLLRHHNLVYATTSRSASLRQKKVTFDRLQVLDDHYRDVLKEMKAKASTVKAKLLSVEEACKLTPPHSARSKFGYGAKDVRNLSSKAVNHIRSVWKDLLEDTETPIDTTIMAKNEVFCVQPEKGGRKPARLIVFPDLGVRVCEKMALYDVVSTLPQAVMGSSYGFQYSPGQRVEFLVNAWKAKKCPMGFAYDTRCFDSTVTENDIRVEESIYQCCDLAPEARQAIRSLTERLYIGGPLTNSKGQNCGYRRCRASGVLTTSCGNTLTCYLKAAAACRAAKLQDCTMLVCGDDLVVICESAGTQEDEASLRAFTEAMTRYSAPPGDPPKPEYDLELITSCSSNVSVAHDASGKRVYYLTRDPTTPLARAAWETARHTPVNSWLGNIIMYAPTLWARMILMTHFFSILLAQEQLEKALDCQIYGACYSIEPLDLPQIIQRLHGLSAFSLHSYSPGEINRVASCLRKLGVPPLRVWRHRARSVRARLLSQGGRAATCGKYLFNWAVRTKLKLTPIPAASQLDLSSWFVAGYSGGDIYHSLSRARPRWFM
- Experiment Summary: HCV NS5B RdRp enzyme assay (standard or modified)
- Assay type: biochemical
- Condition Set: HCV NS5B RdRp genotype 1b; standard or modified enzyme assay not specified; read-out: IC50
pIC50: −log10 of the molar value.

{"Molecule": "COc1ccc2c(c1)C1CC1(C(=O)N(C)C(CN(C)C)c1ccccc1)Cn1c-2c(C2CCCCC2)c2ccc(C(=O)NS(=O)(=O)N(C)C)cc21 (stereo not shown)", "Target Entity": "HCV NS5B (Hepatitis C virus genotype 1b, UniProt Q9WMX2)", "pIC50": "6.00 to 8.52"}
{"Molecule": "COc1ccc2c(c1)C1CC1(C(=O)N1CCCN(Cc3cccnc3)CC1)Cn1c-2c(C2CCCCC2)c2ccc(C(=O)NS(=O)(=O)N(C)C)cc21 (stereo not shown)", "Target Entity": "HCV NS5B (Hepatitis C virus genotype 1b, UniProt Q9WMX2)", "pIC50": "6.00 to 8.52"}
{"Molecule": "COc1ccc2c(c1)C1CC1(C(=O)N1CCCN(Cc3cccnc3)CC1)Cn1c-2c(C2CCCCC2)c2ccc(C(=O)NS(=O)(=O)N3CCC3)cc21 (stereo not shown)", "Target Entity": "HCV NS5B (Hepatitis C virus genotype 1b, UniProt Q9WMX2)", "pIC50": "6.00 to 8.52"}
{"Molecule": "COc1ccc2c(c1)C1CC1(C(=O)N1CCNC(c3cccc(Cl)c3)C1)Cn1c-2c(C2CCCCC2)c2ccc(C(=O)NS(=O)(=O)N(C)C)cc21 (stereo not shown)", "Target Entity": "HCV NS5B (Hepatitis C virus genotype 1b, UniProt Q9WMX2)", "pIC50": "6.00 to 8.52"}
{"Molecule": "COc1ccc2c(c1)C1CC1(C(=O)N1CCCN(C(=O)OC(C)(C)C)CC1)Cn1c-2c(C2CCCCC2)c2ccc(C(=O)NS(C)(=O)=O)cc21 (stereo not shown)", "Target Entity": "HCV NS5B (Hepatitis C virus genotype 1b, UniProt Q9WMX2)", "pIC50": "6.00 to 8.52"}
{"Molecule": "COc1ccc2c(c1)C1CC1(C(=O)O[C@@H]1C[C@@H]3CC[C@@]1(C)C3(C)C)Cn1c-2c(C2CCCCC2)c2ccc(C(=O)NS(=O)(=O)N(C)C)cc21 (stereo partly shown)", "Target Entity": "HCV NS5B (Hepatitis C virus genotype 1b, UniProt Q9WMX2)", "pIC50": "6.00 to 8.52"}

Sure, the documented pIC50 for COc1ccc2c(c1)C1CC1(C(=O)N(C)CC1CCCCN1C)Cn1c-2c(C2CCCCC2)c2ccc(C(=O)NS(=O)(=O)N(C)C)cc21 (stereo not shown) is 6.00 to 8.52

Sure, the documented pIC50 for COc1ccc(C2CN(C(=O)C34CC3c3cc(OC)ccc3-c3c(C5CCCCC5)c5ccc(C(=O)NS(=O)(=O)N(C)C)cc5n3C4)CCN2)cc1 (stereo not shown) is 6.00 to 8.52

Sure, the documented pIC50 for COc1ccc2c(c1)C1CC1(C(=O)N1CCNC(c3ccc(Cl)cc3)C1)Cn1c-2c(C2CCCCC2)c2ccc(C(=O)NS(=O)(=O)N(C)C)cc21 (stereo not shown) is 6.00 to 8.52

Sure, the documented pIC50 for "COc1ccc2c(c1)C=C(C(=O)N1CCCN(CCCN3CCOCC3)CC1)Cn1c-2c(C2CCCCC2)c2ccc(C(=O)NS(=O)(=O)C3CC3)cc21" is 6.00 to 8.52

Sure, the documented pIC50 for COc1ccc2c(c1)C1CC1(C(=O)N1CCCN(C(C)=O)CC1)Cn1c-2c(C2CCCCC2)c2ccc(C(=O)NS(=O)(=O)N(C)C)cc21 (stereo not shown) is 6.00 to 8.52

Sure, the documented pIC50 for COc1ccc2c(c1)C1CC1(C(=O)N1CCCN(Cc3cccnc3)CC1)Cn1c-2c(C2CCCCC2)c2ccc(C(=O)NS(C)(=O)=O)cc21 (stereo not shown) is 6.00 to 8.52

Sure, the documented pIC50 for COc1ccc2c(c1)C1CC1(C(=O)O[C@@H]1C[C@H](C)CC[C@H]1C(C)C)Cn1c-2c(C2CCCCC2)c2ccc(C(=O)NS(=O)(=O)N(C)C)cc21 (stereo partly shown) is 6.00 to 8.52
